Target: DIO2 (Homo sapiens, UniProt Q92813)
Sequence (Q92813 whole entry): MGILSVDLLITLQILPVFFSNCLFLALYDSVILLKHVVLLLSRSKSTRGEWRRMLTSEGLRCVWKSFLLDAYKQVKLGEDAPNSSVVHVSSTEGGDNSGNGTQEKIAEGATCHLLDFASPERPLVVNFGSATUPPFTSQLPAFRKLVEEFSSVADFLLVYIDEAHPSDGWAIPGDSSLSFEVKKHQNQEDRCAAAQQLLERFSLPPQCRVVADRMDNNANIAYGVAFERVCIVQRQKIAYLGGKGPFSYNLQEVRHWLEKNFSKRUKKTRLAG
Test: In vitro DIO2 kinetics and inhibition in microsomal preparations of H4 cells
Assay type: biochemical
Result Type: Ki (µM)
Could you give me the number in µM? Just the number is fine.

What value of Ki on DIO2 (Homo sapiens, UniProt Q92813) does Oc1cc(Oc2cc(Br)c(Br)cc2Br)c(Br)cc1Br [5’-OH-BDE-99] have?
7.11

Here is the next item to consider.
What value of Ki on DIO2 (Homo sapiens, UniProt Q92813) does Brc1ccc(Oc2cc(Br)c(Br)cc2Br)c(Br)c1 [BDE-99] have?
33.3

---

Molecular target: DIO2 (Homo sapiens)
Assay: In vitro DIO2 kinetics and inhibition in microsomal preparations of H4 cells
Result Type: IC50 (µM)
Could you give me the number in µM? Just the number is fine.

What value of IC50 on DIO2 (Homo sapiens) does `Oc1cc(Oc2cc(Br)c(Br)cc2Br)c(Br)cc1Br` have?
16.6

Hello, the source for this data is paper PMC4827872, in case you need it.
